Assign growth to each entry below.
Test system: NCI-H522 lung
protocol text: NCI-60 one-dose screen, 48 h (100 = growth as untreated, 0 = no growth, -100 = all killed)
run conditions: 10 µM unless noted
Compounds without any hit were thinned out: in the full panel of roughly 83,000, 20% have a hit.
Number only, in %; omit the unit.

Problem: Name the reported growth value associated with the compound CCN(CC)CC(=O)Nc1c(C)cc(C(=O)NN)cc1C
Result: 105

Problem: Same for COc1cc(C2CC(=O)Nc3c2cnn3C)cc(OC)c1OC (stereo unspecified)
Result: 101

Problem: Same lookup for COc1ccc(-c2cc(C(=O)Nc3ccc(C)cc3)nc3[nH]c(=O)sc23)cc1 , please.
Result: 24.3

Problem: Repeat for the following compound: CC(C)c1cccc(C#N)c1
Result: 107

Problem: Try C=C1C[C@@]2(C)C(CC[C@]3(C)C2CC=C2C4CC(C)(C)C[C@@H](OC(=O)/C(C)=C\C)[C@]4(C(=O)O)CC[C@]23C)C(C)(C)C1=O (stereo partly specified) next.
Result: -6.98

Problem: Try S=C(S)Oc1cccc2cccnc12 next.
Result: 88.9

---

System: LOX IMVI melanoma
protocol text: NCI-60 one-dose screen, 48 h
run conditions: 10 µM unless noted
About 83,000 compounds went through this panel and 20% of them were active in at least one assay; those are over-represented in the sample as a whole. Activity calls are given as the source filed them. Rule for the calls: active = growth percent below 10; inactive = the rest.
Returns: one label drawn from active, inactive

Problem: Hello, I am checking results. What call was entered for CC(C)(C)[Si](C)(C)OC1[C@@H](CNC(N)=O)O[C@@H](n2cnc3c(NC(=O)Nc4ccccc4)ncnc32)[C@H]1O[Si](C)(C)C(C)(C)C (stereo not given in full) ?
Result: inactive

Problem: Now give it for CC(=O)NC1C(O[C@H]2C[C@H]3[C@@H]4CC=C5C[C@@H](O)CC[C@]5(C)[C@H]4CC[C@]3(C)[C@H]2[C@H](C)C(=O)CCC(C)C)OCC(O)C1O (stereo not given in full) too.
Result: inactive

Problem: Same again, this time with c1ccc2c(N=NSc3ncnc4nc[nH]c34)c3ccccc3nc2c1
Result: active

Problem: What about O=C1CCCN1C1CCN2CCCc3cccc1c32 (stereo not given) ?
Result: inactive

Problem: Try this compound next: O=[N+]([O-])c1ccc(N/N=C\c2ccc(O)cc2O)nc1
Result: inactive

Problem: Param item: c1cc(C2CCCCC2)ccc1-c1cnc2nonc2n1
Result: active

Problem: Repeat with CCOC(=O)Cc1cc(Br)c(OCc2ccccc2)c(Br)c1
Result: inactive

Problem: What about COc1cc(OC)cc(-c2ccc(-c3ccc(C(=N)N)s3)s2)c1 ?
Result: active

Problem: // query: CCCCCCCCCCCC1=NC(C)(C)CN1C(C)C
Result: inactive

Problem: Next entry: Nc1c(C(=O)C[C@@H](N)CO)ccc2c1C(=O)CCO2
Result: active

---

System: T-47D breast
protocol text: NCI-60 one-dose screen, 48 h (100 = growth as untreated, 0 = no growth, -100 = all killed)
run conditions: 10 µM unless noted
Compounds without any hit were thinned out: in the full panel of roughly 83,000, 20% have a hit.
Decision: growth beneath 60% gives 1 (yes); growth meeting or exceeding 60% gives 0 (no).

Problem: API: query returns whether the compound falls strictly under 60% in growth. Query: CC(C)(C)c1cc(C[P+](c2ccccc2)(c2ccccc2)c2ccccc2)cc(C(C)(C)C)c1O
Result: 1 (yes)

Problem: Then what about the compound COc1cc(NC(=O)CSc2nc3ccc(Cl)cc3c(=O)n2Cc2ccccc2)cc(OC)c1OC ?
Result: 1 (yes)

Problem: Now the compound Cc1ccc(OC2=C(C#N)C(=N)N3C(=NN2)Sc2c(C)ccc(C)c23)cc1
Result: 0 (no)

Problem: Next entry: CN1C2CCC1/C(=C\c1ccc(F)cc1)C(=O)/C2=C/c1ccc(F)cc1
Result: 1 (yes)

Problem: Query Cc1ccc([C@H]2c3[nH]c4ccccc4c3C[C@H]3C(=O)N(CCCCCCC(=O)NO)CC(=O)N23)cc1 next
Result: 1 (yes)

---

Tested on: OVCAR-3 ovarian
protocol text: NCI-60 one-dose screen, 48 h
run conditions: 10 µM unless noted
The panel holds about 83,000 compounds, 20% with a hit somewhere; the sample as a whole holds those more often. The source made the active and inactive calls. Rule for the calls: active = growth percent below 10; inactive = the rest.
// classify into active, inactive

Problem: Per the assay record, what outcome was assigned to CC(C)CC1NC(=O)C(CC(C)C)N(CO)C1=O (centres undefined) ?
Result: inactive

Problem: Then CNC(=O)OC1C(O[C@H]2C[C@H]3[C@@H]4CC=C5C[C@@H](O)CC[C@]5(C)[C@H]4CC[C@]3(C)[C@H]2[C@H](C)C(=O)CCC(C)C)OCC(O)C1OC1OCC(O)C(O)C1OC(=O)c1ccc(OC)cc1 (some centres undefined) ?
Result: inactive

Problem: Query COc1ccc(N=C2CSc3nnc(-c4cc(F)c(Cl)cc4Cl)n3N2)cc1 next
Result: active

Problem: Moving on to the next molecule: COc1cccc(-c2nc3sccn3c2-c2ccnc(NCCN3CCCN(C)S3(=O)=O)n2)c1
Result: inactive

Problem: Next up: CCCCCc1c(C)[nH]c(/C=C2\N=C(c3ccc[nH]3)C=C2Oc2ccc(OC)cc2)c1C
Result: active

Problem: Repeat for the following molecule: c1coc(CNc2c3ccccc3nc3ccccc23)c1
Result: inactive

Problem: Ok, now Clc1ccc(Cl)c(N=Cc2ccc3c(c2)OCO3)c1
Result: inactive

Problem: Repeat for the following molecule: CCSCC1CC(O)(c2ccccc2)C(c2ccccc2)C(c2ccc(F)cc2)O1 (centres undefined)
Result: active

Problem: Similarly, COc1ccc(-n2c(COc3ccc(F)cc3)n[nH]c2=S)cc1 ?
Result: inactive

---

System: NCI-H460 lung
protocol text: NCI-60 one-dose screen, 48 h
run conditions: 10 µM unless noted
About 83,000 compounds went through this panel and 20% of them were active in at least one assay; those are over-represented in the sample as a whole. The source made the active and inactive calls. Rule for the calls: active = growth percent below 10; inactive = the rest.
Respond only with the outcome that fits, drawn from active, inactive

Problem: What outcome does the record of this test show for CCN(CC)c1ccc2c(cc1=O)[C@@H](NC(C)=O)CCc1cc(OC)c(OC)c(OC)c1-2 ?
Result: active

Problem: Try CN(C)c1ccc(/C=C\c2cccc[n+]2C)cc1 next.
Result: inactive

Problem: Request: Cc1c(C(=O)Nc2ccccc2F)sc2c(=O)[nH]cnc12
Result: inactive

Problem: Would you mind doing N=c1nc(N2CCCCC2)cc(N)n1O as well?
Result: inactive

Problem: Now try CCOC(=O)c1cnc(SCC)nc1SC#N .
Result: inactive

Problem: And the next one, O=C1SCN(Cc2ccccc2)CN1Cc1ccccc1 ?
Result: inactive

---

Tested on: KM12 colon
protocol text: NCI-60 one-dose screen, 48 h (100 = growth as untreated, 0 = no growth, -100 = all killed)
run conditions: 10 µM unless noted
Compounds without any hit were thinned out: in the full panel of roughly 83,000, 20% have a hit.
quantity measured: growth (%)
Kindly provide the numeric value in % only, without the unit symbol.

Problem: If you can, please state the reported growth value of Nc1c(N)c2ccccc2c2ccccc12 .
Result: 116

Problem: Request: CC1(C)CC(=O)c2cc3c(N)c(C(=O)Nc4ccc(Cl)cc4)sc3nc2C1
Result: 117

Problem: Same read-out for COc1ccccc1CNCCCN1C(=O)c2ccc3c4c(ccc(c24)C1=O)C(=O)N(CCCOCCCCOCCCN)C3=O ?
Result: -59

Problem: Also C=C(c1ccc(C(=O)NCCCn2ccnc2)cc1)c1cc2c(cc1C)C(C)(C)CCC2(C)C , if possible.
Result: 24.5

Problem: Would you kindly repeat that for N/C(=N\OC(=O)c1ccccc1)C(Cc1ccccc1)C(=O)NOC(=O)c1ccccc1 (stereo not drawn) ?
Result: 24.2

Problem: Would you mind doing CC(C)OC1OC(OC(C)C)C(OC(C)C)OC1OC(C)C (stereo not drawn) as well?
Result: 95.2

Problem: # iterate: CCN(CC)c1cc(C)c(Cc2c(OC)ccc3ccccc23)cc1C
Result: 98.1

Problem: And ClCc1c(Cl)c(Cl)c(Cl)c(CCl)c1Cl ?
Result: 24.8

Problem: Next up: Nc1nc(N)c2cc(NCc3ccc(Cl)c(Cl)c3)ccc2n1
Result: -94.4

Problem: Request: CS(=O)(=O)c1ccc(C(=O)N/N=C/c2ccc3c(c2)OCO3)cc1
Result: 95.9

Problem: One more compound: O=[N+]([O-])c1ccc(N=Nc2c(NNc3ccc([N+](=O)[O-])cn3)cc(S(=O)(=O)O)c3ccccc23)nc1
Result: 87.6

Problem: Entry Nc1c(C(=O)C[C@@H](N)CO)ccc2c1C(=O)CCO2 please
Result: 20.1

Problem: Could you do the same for CCN(CC)c1ccc(/C=N/NC(=O)c2ccc(S(C)(=O)=O)cc2)c(O)c1 , please?
Result: 25.9

Problem: Param item: c1ccc(-c2nnn(-c3ccccc3)n2)cc1
Result: 107

Problem: What do we get for O=c1oc2ccccc2cc1-c1cc(-c2ccc(-c3cc(-c4cc5ccccc5oc4=O)nc(-c4cc5ccccc5oc4=O)c3)cc2)cc(-c2cc3ccccc3oc2=O)n1 ?
Result: 103

Problem: One more compound: CCN(CC)Cc1cc(Nc2ccnc3ccc(OC)cc23)ccc1O
Result: 42.2

Problem: Also CC(C)c1cccc(C#N)c1 , if possible.
Result: 111

Problem: Similarly, Cc1ccc(NC(=O)c2cc(NCc3cc(O)ccc3O)ccc2O)cc1 ?
Result: 91

Problem: Moving on to CCN(CC)CCNC(=O)C(F)(F)C(F)(F)C(F)(F)F
Result: 101

Problem: Follow-up item: CCCCCCCCCCCCCCCC1=NC(C)(C)CN1C(C)C
Result: -73.2

Problem: Could you do the same for COc1ccc(-c2cc(C(=O)Nc3ccc(C)cc3)nc3[nH]c(=O)sc23)cc1 , please?
Result: 67.4

Problem: Try O=C(c1ccc(OCCN2CCCCC2)cc1)c1c(-c2ccc(O)cc2)sc2cc(O)ccc12 next.
Result: 103

Problem: Subsequent entry: COc1cc(/C=C/c2cc(/C=C/c3ccc(O)c(OC)c3)n(C(=O)Nc3ccc(F)c(Cl)c3)n2)ccc1O
Result: 0.0776

Problem: Here is the next compound: CCN(CC)c1ccc(/C=N/NC(=O)C[N+](C)(C)C)cc1
Result: 102

Problem: Item: NC(CCC(=O)NC(CS)C(=O)NCC(=O)O)C(=O)O (stereo not drawn)
Result: 108

Problem: # iterate: ClCCn1cnc2c(SCc3ccccc3Cl)ncnc21
Result: 34.8

Problem: Note, next up: Cc1ccc(OC2=C(C#N)C(=N)N3C(=NN2)Sc2c(C)ccc(C)c23)cc1
Result: 106

Problem: Next compound up: CC(C)[C@@]12C[C@@H](OC(=O)C3CO3)[C@@](C)(O1)[C@@H]1CC[C@@H](C)[C@H]1[C@@H]2OC(=O)/C=C/c1ccccc1 (stereo partly drawn)
Result: 99.7

Problem: Another compound to check: O=C1/C(=C/c2cc(F)cc(F)c2)Cc2cc(F)cc(F)c21
Result: 92.6

Problem: Again, but for COC(=O)[C@@H](Cc1c[nH]c2ccccc12)NC(=O)/C=C/c1ccccc1
Result: 27.3

Problem: And CCSCC1CC(O)(c2ccccc2)C(c2ccccc2)C(c2ccc(F)cc2)O1 (stereo not drawn) ?
Result: -9.64

Problem: Param item: COc1cc(-c2nc(-c3ccc(-c4nc5ccc(F)cc5[nH]4)cc3)no2)cc(OC)c1OC
Result: 11.5

Problem: Same lookup for Oc1c(C(Nc2ccccc2Br)c2ccccc2)ccc2cccnc12 (stereo not drawn) , please.
Result: 32.3

Problem: Note, next up: O=C(O)C(CCc1ccccc1)NCc1ccccc1 (stereo not drawn)
Result: 100

Problem: Try CCN1C(=O)N(CC)C2C1NN=c1s/c(=C\c3ccco3)c(=O)n12 (stereo not drawn) next.
Result: 15.9

Problem: Query CCN1C(=O)N(CC)C2C1NN=c1s/c(=C\c3ccc(Br)cc3)c(=O)n12 (stereo not drawn) next
Result: 6.77

Problem: Okay, and COc1ccccc1/C=N\Nc1ccc([N+](=O)[O-])cn1 ?
Result: 106

Problem: Repeat with CCN1C(=O)C(C)C=C(C)C=C1C (stereo not drawn)
Result: 100

Problem: Then what about the compound CCN(C(=O)CCl)C(C)(C)C(SSSC(c1ccc(Cl)cc1)C(C)(C)N(CC)C(=O)CCl)c1ccc(Cl)cc1 (stereo not drawn) ?
Result: 85.6

Problem: COc1ccc(-c2cnc(-c3ccncc3-c3cccc(OC)c3)o2)cc1 ?
Result: -28.6

Problem: Can you handle CC1=CC(=O)OC1C/C=C(\C)CCC1[C@@]2(C)CCC[C@@](C)(C(=O)O)C2CC[C@@]1(C)O (stereo partly drawn) next?
Result: 26.4

Problem: Now this one: O=C(c1ccccc1)C1OC1C(=O)c1ccccc1 (stereo not drawn)
Result: 55.5

Problem: What about O/N=C/c1ccncc1 ?
Result: 105
